# subject_of_test: T1, human CD24 on cells (human, UniProt P25063 27-59)
# T1 chain (looked up): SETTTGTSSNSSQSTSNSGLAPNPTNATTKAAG
# experimental_protocol: cell-based or functional assay
measured_quantity: EC50 of Phagocytosis assay, IgG4, Kappa; HEK293-CD24 (µg/mL)
Give just the numeric value; µg/mL need not be written.

Example entries begin here.
45-H1E4, IgG4, Kappa (antibody, V domains shown) VH: QIQLVQSGPELKKPGETVKISCKASGYTFTTYGMSWMKQAPGKGLKWMGWINTYSGVPAYADDFKGRFAFSLDTSASTAYLQINNLKNEDTATYFCARSGYPWSPHSYSTDYWGQGISVTVSS VL: DVLLTQTPLSLPVSLGDQASISCKSSQSIVHSNGNTYLEWYLQKPGQSPKRLIYKVSNRFSGVPDRFSGSGSGTDFTLKISRVEAEDLGVYYCFQGSHVPWTFGGGTKLEIK :: 0.9
63-B10B9, IgG4, Kappa (antibody, V domains shown) VH: EVQLQQSGPELVKPGASVKISCKASGYSFTGYYMNWVKQSPEKSLEWIGEINPITGGTTYNQKFRAKATLTVDRSSSTAYMQLKSLTSEDSAVYYCTKRDYDTSLDYWGQGTTLIVSS VL: DVQITQSPSYLAAFPGETITINCRASKSIKKYLAWYQEKPGKTNNLLIYSGSTLQSGIPSRFSGSGTGTDFTLTISSLEPEDFAMYYCQQHNEYPLTFGAGTKLELK :: 1.14

**Query** Consider the binder 67-H2E7, IgG4, Kappa (antibody, V domains shown) VH: EVQLQQSGPELVKPGASVKISCKASGYEFTGYHMNWVKQSPEKSLEWIGEINPITSDKTFNQKFKAKATLTVDRSSTTAYMHLKSLTSEDSAVYYCARRDYDTSLDYWGQGTTLTVSS VL: DVQITQSPSYLAASPGETITIYCRASKSISKYLAWYQEKPEKTNRLLIYAGSTLQSGIPSRFRGSGSGKDFTLTVSGLEPEDFAMYYCQQHNEYPLTFGAGTKLDLK and give its measured EC50 of Phagocytosis assay, IgG4, Kappa; HEK293-CD24.
**Result** 0.51
